- procedure_details: qHTS for Inhibitors of human tyrosyl-DNA phosphodiesterase 1 (TDP1): qHTS in cells in absence of CPT; also: nearly all actives have a fitted effect of over 55% in size
- experimental_setup: DT40 Tdp1-/- hTDP1 cells, no CPT, ATP luminescence, 48 h
About 64,000 (15%) of roughly 420,000 compounds were called active. Roughly 27% stayed inconclusive and do not appear here. Calls follow the shape of the dose curve; as a rule, active = well fitted inhibition curve with a large enough effect; inconclusive = small, poorly fitted or top-dose-only effect; inactive = flat fitted curve, though single readings scatter. Only a sample is shown.
Labels: active, inactive

molecule	class_label
CC(NC(=O)c1cc2c(=O)n3ccccc3nc2n(C(C)C)c1=N)c1ccccc1 (centres undefined)	active
CCOC(=O)C1=C(CN2CCc3ccccc32)NC(=O)NC1c1cc(C)ccc1C (centres undefined)	active
COc1cc(/C=C(/NC(=O)c2ccc(Cl)cc2Cl)C(=O)O)cc(OC)c1OC	inactive
CCCc1cc(=O)[nH]c(SCc2cc(=O)oc3c(C)c(C)ccc23)n1	inactive
O=C(Nc1nonc1-c1ccc(Cl)cc1)c1ccco1	inactive
O=C(c1ccc[nH]c1=S)N1CCN(S(=O)(=O)c2ccc(Br)cc2Cl)CC1	inactive
CCOc1ccccc1NC(=O)C1CCCN(C(=O)Nc2ccccc2)C1 (centres undefined)	inactive
CCc1ccc(NC(=O)CS(=O)CC(=O)N2CCN(c3ccccc3F)CC2)cc1 (centres undefined)	inactive
COc1ccc(-c2c(NC(=O)c3ccco3)oc3ccc(Cl)cc3c2=O)cc1	inactive

====

- procedure_details: qHTS for Inhibitors of human tyrosyl-DNA phosphodiesterase 1 (TDP1): qHTS in cells in absence of CPT; also: nearly all actives have a fitted effect of over 55% in size
- experimental_setup: DT40 Tdp1-/- hTDP1 cells, no CPT, ATP luminescence, 48 h
About 64,000 (15%) of roughly 420,000 compounds were called active. Not shown: some 27% with an inconclusive outcome. Calls follow the shape of the dose curve; as a rule, active = well fitted inhibition curve with a large enough effect; inconclusive = small, poorly fitted or top-dose-only effect; inactive = flat fitted curve, though single readings scatter. A selection follows.
Possible outcomes: True for active, False for inactive

compound	class_label
CC1(C(=O)NCc2ccco2)Cc2c(-c3ccc4c(c3)OCO4)ccnc2O1 (stereo not given)	True
O=C(NCc1ccc2c(c1)OCO2)C12CC3CC(CC(C3)C1)C2	False
O=C(Cn1nnc(-c2ccc3c(c2)OCO3)n1)NCc1ccco1	False
Nc1nc2c(ncn2[C@@H]2O[C@H](CNS(=O)(=O)N3CCc4ccccc4C3)[C@@H](O)[C@H]2O)c(=O)[nH]1	False
O=S(=O)(Nc1ccc(-c2ccc(N3CCOCC3)nn2)cc1)c1cc(Cl)ccc1Cl	False

====

- procedure_details: qHTS for Inhibitors of human tyrosyl-DNA phosphodiesterase 1 (TDP1): qHTS in cells in absence of CPT; also: nearly all actives have a fitted effect of over 55% in size
- experimental_setup: DT40 Tdp1-/- hTDP1 cells, no CPT, ATP luminescence, 48 h
In all, about 420,000 compounds went through this assay and about 64,000 (15%) were called active. Inconclusive results (about 27%) are left out. The call rests on the fitted dose curve; in most records, active means well fitted inhibition curve with a large enough effect; inconclusive means small, poorly fitted or top-dose-only effect; inactive means flat fitted curve, though single readings scatter. These entries were drawn from the full list.
Possible outcomes: 1 (active), -1 (inactive)

molecule	class_label
O=C(CN1C(=O)NC2(CCCCCC2)C1=O)NCc1ccc(F)cc1	-1
Cn1c(CSCC(=O)Nc2ccccc2)nnc1SCc1ccccc1	-1
O=C(CNS(=O)(=O)c1ccc(Br)s1)NCc1ccc2c(c1)OCO2	-1
O=C1c2cccc3cccc(c23)C(=O)N1CCCCCc1n[nH]c(=S)o1	-1
CCOC(=O)C1CCN(C(c2cc3cc(C)cc(C)c3[nH]c2=O)c2nnnn2C2CCCCC2)CC1 (centres undefined)	-1
Cc1cc(C)c2[nH]c(=O)c(C(c3nnnn3Cc3ccc4c(c3)OCO4)N3CCCC3)cc2c1 (centres undefined)	1
O=C1c2ccccc2S(=O)(=O)N1CC(O)Cn1c2ccccc2c2ccccc21 (centres undefined)	-1
Cc1ccccc1Cn1c(=O)[nH]c2ccccc21	-1
COc1ccccc1-c1cc(C(=O)NCCCn2ccnc2)no1	-1

Origin of measurements: PubChem BioAssay AID686978
